src = patent US10428024B2

In what follows, each item is paired with its IC50 for PDHK2 (Homo sapiens (Human)).
OBSERVABLE: IC50 (nM)

Worked set:
> print(dat)
                                   compound   u  numeric.result
1  Cc1ccc(N(C)C(=O)C2CCN(C(=O)[C@@](C)(O)C(F)(F)F)CC2C)cc1 (stereo partly shown) [Compound A6]  nM             240
2  C[C@@H]1CN(C(=O)[C@@](C)(O)C(F)(F)F)CC[C@@H]1N(C)C(=O)c1ccc(F)cn1 [Compound A53]  nM             410
3  C[C@H]1CN(C(=O)[C@@](C)(O)C(F)(F)F)CC[C@H]1N(C)C(=O)c1ccc(F)cc1F [Compound A39]  nM            4900
4  Cc1ccc(N(C)C(=O)[C@@H]2CCN(C(=O)[C@@](C)(O)C(F)(F)F)C[C@@H]2C)c(F)c1 [Compound A14]  nM             770
5  Cc1ccc(N(C)C(=O)C2CCN(C(=O)[C@@](C)(O)C(F)(F)F)CC2C)c(F)c1 (stereo partly shown) [Compound A12]  nM             200

[I] Cc1ccc(N(C)C(=O)[C@H]2CCN(C(=O)[C@@](C)(O)C(F)(F)F)C[C@H]2C)cc1 [Compound A7]
[II] C[C@H]1CN(C(=O)[C@@](C)(O)C(F)(F)F)CC[C@H]1N(C)C(=O)c1ccc(C(F)(F)F)cc1 [Compound A63]
Between the entries labelled I and II , which has a larger IC50 value on record? // respond with label for picked entry
II

* * *

In what follows, each item is paired with its IC50 for PDHK2 (Homo sapiens (Human), UniProt Q15119).
OBSERVABLE: IC50 (µM)

> print(dat)
                        structure.as.smiles  numeric.result
1  Cc1ccc(C(=O)N(C)[C@H]2CCN(C(=O)[C@@](C)(O)C(F)(F)F)C[C@H]2C)cc1            0.13
2  C[C@H]1CN(C(=O)[C@@](C)(O)C(F)(F)F)CC[C@H]1N(C)C(=O)c1ccc(Cl)cc1             5.9
3  C[C@H]1CN(C(=O)[C@@](C)(O)C(F)(F)F)CC[C@H]1N(C)C(=O)c1ccc(F)cc1             7.9

[a] CN(C(=O)c1ccc(C(F)(F)F)cc1Cl)C1CCN(C(=O)[C@@](C)(O)C(F)(F)F)CC1
[b] C[C@@H]1CN(C(=O)[C@@](C)(O)C(F)(F)F)CC[C@@H]1N(C)C(=O)c1ccc(F)cc1Cl
Between the entries labelled a and b , which has a larger IC50 value on record? // respond with label for picked entry
a

[I] Cc1ccc(N(C)C(=O)[C@@H]2CCN(C(=O)[C@@](C)(O)C(F)(F)F)C[C@@H]2C)cc1
[II] C[C@@H]1CN(C(=O)[C@@](C)(O)C(F)(F)F)CC[C@@H]1N(C)C(=O)c1ccc(C#N)cc1
Between the entries labelled I and II , which has a larger IC50 value on record? // respond with label for picked entry
I

* * *

In what follows, each item is paired with its Kd for human PDHK2 (12-407) (Homo sapiens (Human)).
OBSERVABLE: Kd (nM)

Worked set:
> print(dat)
                                   compound  numeric.result
1  Cc1ccc(C(=O)N(C)C2CCN(C(=O)[C@@](C)(O)C(F)(F)F)CC2)cc1             110
2  Cc1ccc(C(=O)N(C)[C@H]2CCN(C(=O)[C@@](C)(O)C(F)(F)F)C[C@H]2C)c(F)c1              13
3  Cc1ccc(N(C)C(=O)[C@H]2CCN(C(=O)[C@@](C)(O)C(F)(F)F)C[C@H]2C)c(F)c1              14

[P] C[C@@H]1CN(C(=O)[C@@](C)(O)C(F)(F)F)CC[C@@H]1N(C)C(=O)c1ccc(F)cc1Cl
[Q] C[C@@H]1CN(C(=O)[C@@](C)(O)C(F)(F)F)CC[C@@H]1N(C)C(=O)c1ccc(C(F)(F)F)cc1F
[R] CC1CN(C(=O)[C@@](C)(O)C(F)(F)F)CCC1C(=O)N(C)c1ccc(Cl)cc1 (stereo partly drawn)
[S] CN(C(=O)C1CCN(C(=O)[C@@](C)(O)C(F)(F)F)CC1)c1ccc(Cl)cc1
Arrange the 4 compounds from largest to smallest Kd. I'd appreciate it if you listed the labels in the requested order.
S, R, Q, P
(S: 190 nM, R: 100 nM, Q: 35 nM, P: 13 nM)

[1] Cc1ccc(N(C)C(=O)C2CCN(C(=O)[C@@](C)(O)C(F)(F)F)CC2)c(F)c1
[2] CN(C(=O)C1CCN(C(=O)[C@@](C)(O)C(F)(F)F)CC1)c1ccc(C#N)cc1
Which gives the smaller Kd number: 1 or 2 ? // respond with label for picked entry
1
(1: 90 nM, 2: 210 nM)
